// values below are reported TGI
Tested on: NCI/ADR-RES ovarian
Assay: NCI tumour cell line growth inhibition, 48 h

Here are 3 compounds together with their reported answers.
compound | TGI
COc1cc(C2c3cc4c(cc3C(=O)C3CCC(=O)N32)OCO4)cc(OC)c1O (stereo not given) | > 50 µM
CN1CCC(C(O)(c2ccccc2)c2ccc(Br)cc2)CC1 (stereo not given) | > 100 µM
CN(C)c1ccc(C(O)C2=CC(=O)c3ccccc3C2=O)cc1 (stereo not given) | > 100 µM

Query block: Which measured TGI value corresponds to CCOC(=O)c1c[nH]c(C(=O)C=[N+]=[N-])c1C1CCN(CC)C1=S (stereo not given) ?
Result block: > 100 µM

Query block: Which measured TGI value corresponds to Cc1ccc(C2CC(c3ccc(Nc4ccnc5cc(Cl)ccc45)cc3)=NN2C=O)cc1 (stereo not given) ?
Result block: > 100 µM

###

// values below are reported TGI
Tested on: SR leukemia
Assay: NCI tumour cell line growth inhibition, 48 h

compound | TGI
Cc1ccc(S(=O)(=O)N/N=C2/CCC3(O)CC2(C)CCC2[C@H]3CC2(C)C)cc1 (stereo not given in full) | > 100 µM
C[C@@H]1CCc2ncc(F)cc2[C@H]2CCCN2c2ccn3ncc(c3n2)C(=O)N1 | > 100 µM
COc1ccc(-c2c(N)noc2-c2cc(OC)c3c(c2)OCCO3)cc1 | > 52.4 µM
O=[N+]([O-])c1ccc(N=Nc2c(O)[nH]c3ccccc23)c([N+](=O)[O-])c1 | > 100 µM
CC(=O)OCC1OC(n2c3c(cc(C#N)c2=S)CCCC3)C(OC(C)=O)C(OC(C)=O)C1OC(C)=O (stereo not given) | > 100 µM

Query block: Which measured TGI value corresponds to C=CCN1CCC(c2cc(C(=O)OCC)[nH]c2-c2cc(C)no2)C1=O (stereo not given) ?
Result block: > 100 µM

Query block: Which measured TGI value corresponds to O=C1NC2(CCNCC2)Oc2ccccc21 ?
Result block: > 100 µM

Query block: Which measured TGI value corresponds to COc1ccc(C(O)c2cc3c(N)c(C(=O)Nc4cccc(Br)c4C)sc3nc2C)cc1 (stereo not given) ?
Result block: > 33.3 µM

Query block: Which measured TGI value corresponds to Cc1ccc(-c2cc(-c3ccccc3)c(C#N)c(=O)[nH]2)cc1 ?
Result block: > 100 µM

###

System: M14 melanoma
Assay: NCI tumour cell line growth inhibition, 48 h
value_kind: TGI

Here are 3 molecules together with their reported answers.
molecule | value_kind | result
CSc1nc(=O)cnn1C | TGI | > 100 µM
COc1ccc2nc3ccc(OC)cc3c(SCCCl)c2c1 | TGI | > 21.3 µM
OCC(O)C(O)C(O)c1nn(-c2ccc(F)cc2)c2nc3cc(Cl)c(Cl)cc3nc12 (centres undefined) | TGI | 91.8 µM

Now for the molecule whose TGI we want.
Query block: Which measured TGI value corresponds to C=C1CC[C@H]2C(C)=CC[C@H]3C(=C)C(=O)O[C@@H]3[C@@H]12 ?
Result block: > 100 µM

###

Tested on: SN12C renal
Test: NCI tumour cell line growth inhibition, 48 h
value_kind: TGI

molecule | value_kind | result
COC(=O)c1c(O)ccc2c1c1cc3ccccc3c(O)c1n2CCc1ccc(OC)c(OC)c1 | TGI | > 100 µM
COc1ccc(/C=C\c2cc(OC)c(OC)c(OC)c2)cc1 | TGI | > 100 µM

Now for the compound whose TGI we want.
Query block: Which measured TGI value corresponds to O=C1NC2(CCNCC2)Oc2ccccc21 ?
Result block: > 100 µM
